# Test system: FM3A
# test: Inhibitory activity against FM3A TK- cell line
# Assay type: functional
# assay-conditions: Mus musculus, read-out: ID50 (the source's name)
So basically: is IC50 under 1 µg/mL? Then met. Not under? Then not met.

[ask] IC50 strictly < 1 µg/mL for this molecule? CN1CCOP1(=O)OC[C@H]1O[C@@H](n2cc(/C=C/Br)c(=O)[nH]c2=O)C[C@@H]1O (stereo not given in full)
[reply] not met

[ask] Here is the next molecule: COC(CC1CN(C)P(=O)(OC[C@H]2O[C@@H](n3cc(/C=C/Br)c(=O)[nH]c3=O)C[C@@H]2O)O1)Sc1ccccc1 (stereo not given in full)
[reply] not met

[ask] Now the same for Nc1nc2c(ncn2COCCO)c(=O)[nH]1
[reply] met

[ask] Also CN1CC(CC2SCCCS2)OP1(=O)OC[C@H]1O[C@@H](n2cc(/C=C/Br)c(=O)[nH]c2=O)C[C@@H]1O (stereo not given in full) ?
[reply] not met

Now, please, on to the next molecule.
[ask] Is it true that IC50 reported for O=c1[nH]c(=O)n([C@H]2C[C@H](O)[C@@H](CO)O2)cc1/C=C/Br is less than 1 µg/mL?
[reply] met

* * *

# Tested on: Raji
# test: Inhibitory activity against Raji cell line
# Type: functional
# assay-conditions: Homo sapiens, read-out: ID50 (the source's name)
# IC50 values compiled below

Some compounds with known IC50 results, for comparison:
[ask] Recorded IC50 of COC(CC1CN(C)P(=O)(OC[C@H]2O[C@@H](n3cc(/C=C/Br)c(=O)[nH]c3=O)C[C@@H]2O)O1)Sc1ccccc1 (stereo partly specified) , please.
[reply] > 100 µg/mL

[ask] Likewise for O=c1[nH]c(=O)n([C@H]2C[C@H](O)[C@@H](CO)O2)cc1/C=C/Br ?
[reply] 73 µg/mL

[ask] # repeat for CN1CCOP1(=O)OCCOCn1cnc2c(O)nc(N)nc21 (stereo unspecified)
[reply] > 100 µg/mL

[ask] What do you have for Nc1nc2c(ncn2COCCO)c(=O)[nH]1 ?
[reply] > 100 µg/mL

[ask] Now the same for CN1CC(CC2SCCCS2)OP1(=O)OC[C@H]1O[C@@H](n2cc(/C=C/Br)c(=O)[nH]c2=O)C[C@@H]1O (stereo partly specified)
[reply] > 100 µg/mL

In the following, a different compound is considered.
[ask] // returns reported IC50 for input CN1CCOP1(=O)OC[C@H]1O[C@@H](n2cc(/C=C/Br)c(=O)[nH]c2=O)C[C@@H]1O (stereo partly specified)
[reply] > 100 µg/mL

* * *

# test: Antiviral Activity against vesicular stomatitis virus in rabbit kidney cell
# Type: functional
# assay-conditions: Oryctolagus cuniculus
outcome-measure: MIC

Sample records with MIC:
[ask] # query: MIC of entry CN1CCOP1(=O)OC[C@H]1O[C@@H](n2cc(/C=C/Br)c(=O)[nH]c2=O)C[C@@H]1O (stereo partly specified)
[reply] > 400 µg/mL

[ask] And then CN1CCOP1(=O)OCCOCn1cnc2c(O)nc(N)nc21 (stereo unspecified) , what is it?
[reply] > 400 µg/mL

[ask] Also COC(CC1CN(C)P(=O)(OC[C@H]2O[C@@H](n3cc(/C=C/Br)c(=O)[nH]c3=O)C[C@@H]2O)O1)Sc1ccccc1 (stereo partly specified) ?
[reply] > 400 µg/mL

[ask] Record: O=c1[nH]c(=O)n([C@H]2C[C@H](O)[C@@H](CO)O2)cc1/C=C/Br
[reply] > 400 µg/mL

[ask] What about this compound? Nc1nc2c(ncn2COCCO)c(=O)[nH]1
[reply] > 400 µg/mL

Please turn your attention to the following entry.
[ask] Reported MIC for CN1CC(CC2SCCCS2)OP1(=O)OC[C@H]1O[C@@H](n2cc(/C=C/Br)c(=O)[nH]c2=O)C[C@@H]1O (stereo partly specified) : what is it?
[reply] > 200 µg/mL
